- measurement.target: JAK2 (Homo sapiens (Human))
- Sequence (O60674 whole entry): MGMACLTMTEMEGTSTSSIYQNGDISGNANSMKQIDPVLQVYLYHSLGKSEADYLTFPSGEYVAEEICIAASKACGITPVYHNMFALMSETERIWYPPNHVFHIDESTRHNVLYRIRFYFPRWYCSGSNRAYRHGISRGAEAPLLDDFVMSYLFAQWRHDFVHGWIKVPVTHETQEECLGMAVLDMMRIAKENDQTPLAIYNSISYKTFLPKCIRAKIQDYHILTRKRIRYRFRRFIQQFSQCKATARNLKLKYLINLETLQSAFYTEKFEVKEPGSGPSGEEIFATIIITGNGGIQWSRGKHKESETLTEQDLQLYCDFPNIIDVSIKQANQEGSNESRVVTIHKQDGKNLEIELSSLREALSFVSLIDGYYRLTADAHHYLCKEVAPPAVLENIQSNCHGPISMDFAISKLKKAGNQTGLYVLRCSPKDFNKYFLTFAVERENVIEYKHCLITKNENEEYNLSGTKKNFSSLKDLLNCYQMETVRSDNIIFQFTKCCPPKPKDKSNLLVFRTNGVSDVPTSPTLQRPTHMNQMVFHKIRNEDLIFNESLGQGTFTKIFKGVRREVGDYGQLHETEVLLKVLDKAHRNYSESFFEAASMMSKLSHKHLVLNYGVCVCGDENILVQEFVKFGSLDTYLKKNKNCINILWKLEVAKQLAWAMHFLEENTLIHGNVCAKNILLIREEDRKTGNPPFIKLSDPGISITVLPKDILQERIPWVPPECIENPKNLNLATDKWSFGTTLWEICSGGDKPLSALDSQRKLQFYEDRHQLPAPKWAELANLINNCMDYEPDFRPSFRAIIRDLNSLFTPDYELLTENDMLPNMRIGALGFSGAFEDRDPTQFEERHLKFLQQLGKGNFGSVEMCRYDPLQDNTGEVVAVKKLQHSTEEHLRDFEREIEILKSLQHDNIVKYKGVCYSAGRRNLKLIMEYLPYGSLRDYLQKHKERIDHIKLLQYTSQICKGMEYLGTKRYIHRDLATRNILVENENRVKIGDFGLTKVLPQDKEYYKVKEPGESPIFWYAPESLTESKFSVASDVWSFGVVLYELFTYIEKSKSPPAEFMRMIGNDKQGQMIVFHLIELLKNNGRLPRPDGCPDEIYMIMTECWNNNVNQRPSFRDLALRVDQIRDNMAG
- assay.procedure: JAK2 activity inhibition assay (radioactive kinase assay / Caliper assay)
- Format: biochemical
- applied.conditions: read-out: JAK2 Ki
- Experimental: The caliper machine employs an off chip mobility shift assay to detect phosphorylated peptide substrates from kinase assays, using microfluidics technology. […] Compounds are serially diluted in DMSO then further diluted in assay buffer (25 mM HEPES, pH 7.5, 0.01% Brij-35, 0.01% Triton, 0.5 mM EGTA). […] Reaction was incubated at 28° C. for 25 min and then added 25 ul stop buffer (100 mM HEPES, 0.015% Brij-35, 50 mM EDTA), followed by reading with Caliper.
Ki overview

compound	Ki
O=C1NC(=O)C(c2ccc(Nc3nc(-c4c(F)cccc4F)nc4c3C(=O)NC4)cc2)S1 (stereo not shown)	0.1 to 1 µM
CC(C)Oc1ccc(Nc2nc(-c3c(F)cccc3F)nc3c2C(=O)NC3)cc1	0.1 to 1 µM
O=C(Cc1ccc(Nc2nc(-c3c(F)cccc3F)nc3c2C(=O)NC3)cc1)NC1CC2(CNC2)C1	0.1 to 1 µM
CN1CCN[C@@](C)(c2ccc(Nc3nc(-c4c(F)cccc4F)nc4c3C(=O)NC4)cc2)C1=O	0.01 to 0.1 µM
CCNC(=O)Cn1cc(Nc2nc(-c3c(F)cccc3F)nc3c2C(=O)NC3)cn1	> 1 µM
C[C@]1(c2ccc(Nc3nc(-c4c(F)cccc4F)nc4c3C(=O)NC4)cc2)CCN(C2CCOCC2)C1=O	0.01 to 0.1 µM
CN1C(=O)C(C)(c2ccc(Nc3nc(-c4c(F)cccc4F)nc4c3C(=O)NC4)cc2)CC1(C)C (stereo not shown)	0.01 to 0.1 µM

====

# Ki per entry for TYK2 (Homo sapiens (Human))
endpoint.label: Ki

compound	endpoint.label	data.value
O=C1NCc2nc(-c3c(F)cccc3F)cc(Nc3ccc(NC4CCC4)cn3)c21 [Compound I-276]	Ki	< 10 nM
CCOC(=O)C(C)(C)c1ccc(Nc2nc(-c3c(F)cccc3F)nc3c2C(=O)NC3)cc1 [Compound I-178]	Ki	< 10 nM
N[C@@H]1CCCN(c2ccc(Nc3cc(-c4c(F)cccc4F)nc4c3C(=O)NC4)nc2)C1 [Compound I-159]	Ki	< 10 nM
O=C1NCc2nc(-c3c(F)cccc3F)nc(Nc3ccc(C4CCN(CCN5CCOCC5)C4=O)cc3)c21 (centres unmarked) [Compound I-121]	Ki	< 10 nM
O=C1NCc2nc(-c3c(F)cccc3F)nc(Nc3ccc(Cl)cc3)c21 [Compound I-180]	Ki	10 to 100 nM
COc1ccc(Nc2nc(-c3c(F)cccc3F)nc3c2C(=O)NC3)cc1 [Compound I-110]	Ki	< 10 nM
NC(=O)Cc1ccc(Nc2nc(-c3ccccc3Cl)nc3c2C(=O)NC3)cc1 [Compound I-8]	Ki	10 to 100 nM
CC(=O)Nc1ccc(Nc2cc(-c3c(F)cccc3F)nc3c2C(=O)NC3)nc1 [Compound I-237]	Ki	< 10 nM

====

- measurement.target: JAK2 (Homo sapiens (Human))
- assay.procedure: JAK2 activity inhibition assay (radioactive kinase assay / Caliper assay)
- Format: biochemical
- applied.conditions: read-out: JAK2 Ki
pKi: −log10 of the molar value.
Examples of compounds with documented pKi follow.

compound	pKi
CN1CCNC(C)(c2ccc(Nc3cc(-c4c(F)cccc4F)nc4c3C(=O)NC4)nc2)C1=O (stereo not shown)	> 8.00
C[C@H](O)CNC(=O)Cc1ccc(Nc2nc(-c3c(F)cccc3F)nc3c2C(=O)NC3)cc1	6.00 to 7.00
C[C@@H]1CCC[C@@H](C)N1c1ccc(Nc2cc(-c3c(F)cccc3F)nc3c2C(=O)NC3)nc1	7.00 to 8.00
O=C1NCc2nc(-c3c(F)cccc3F)c(F)c(Nc3ccc(N4CCOCC4)cn3)c21	7.00 to 8.00
O=C1NCc2nc(-c3c(F)cccc3F)cc(Nc3ccc(C(=O)N4CCOCC4)cn3)c21	7.00 to 8.00
CN1CCN[C@](C)(c2ccc(Nc3nc(-c4c(F)cccc4F)nc4c3C(=O)NC4)cc2)C1=O	6.00 to 7.00
O=C1NCc2nc(-c3c(F)cccc3Cl)nc(Nc3ccc([C@@H]4CCNC4=O)cc3)c21	6.00 to 7.00

This collection of values is drawn from patent US10196390B2.
